The measurements presented in this section are drawn from PubChem BioAssay AID1159580.

// normalized growth lookup, one value per entry
- assay name: chemical genetic growth profiling, strain panel (AID 1159580);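 note: tested at 20 µM; growth read once vehicle control cultures reached saturation at 30 °C; 1 = growth at the plate median or of vehicle wells; lower values mean less growth of the strain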
- condition description: S. cerevisiae deletion strains, growth OD, locus YHR087W, strain rtc3, hits give low values
In all, about 5,500 compounds went through this assay and about 2,000 (36%) were called active. Roughly 18% stayed inconclusive and do not appear here. This is one part of the list.

line notation: COc1ccc(OC)c(S(=O)(=O)NCc2c(F)cccc2Cl)c1
normalized growth: 1

line notation: CC(C)(C)OC(=O)N1CCN(Cc2ccccc2)CC1
normalized growth: 0.991

line notation: COC(=O)c1ccc(C(=O)OC)nc1
normalized growth: 0.995

line notation: CC/C(=N/Oc1ccc(C(F)(F)F)cn1)c1ccc(-c2ccccc2F)cc1
normalized growth: 1.02

line notation: O=C(O)CCS(=O)(=O)/C=C/c1ccccc1
normalized growth: 1.01

line notation: Cc1ccc(CSC(=N)N)cc1
normalized growth: 0.988

line notation: O=C(Nc1ccc(Cl)cc1Cl)c1cnccn1
normalized growth: 0.973

* * *

- assay name: chemical genetic growth profiling, strain panel (AID 1159580);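 note: tested at 20 µM; growth read once vehicle control cultures reached saturation at 30 °C; 1 = growth at the plate median or of vehicle wells; lower values mean less growth of the strain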
- condition description: S. cerevisiae deletion strains, growth OD, locus YKR001C, strain vps1, hits give low values
Hit rate of the full screen: of about 5,500 compounds, about 2,000 (36%) were called active. Roughly 18% stayed inconclusive and do not appear here. Some of the results follow.

compound: Nc1nccs1
normalized growth: 0.985
//
compound: CCC(CCC(C)C1CCC2C3CC=C4C[C@@H](OC(C)=O)CC[C@]4(C)C3CC[C@]12C)C(C)C (stereo partly specified)
normalized growth: 0.995
//
compound: CCn1cc(C(=O)O)c(=O)c2cc3c(cc21)OCO3
normalized growth: 1.01
//
compound: COc1cc2c(cc1O)CC1c3c(cc(O)c(OC)c3-2)CCN1C (stereo unspecified)
normalized growth: 1.01
//
compound: O=C(O)c1cc(=O)c(O)c2c(O)c(O)ccc2c1
normalized growth: 1.01
//
compound: CC(=O)Oc1cc(C)c2c(c1C(OC(C)=O)OC(C)=O)Oc1c(c(C)c(OC(C)=O)c3c1C(OC(C)=O)OC3=O)OC2=O (stereo unspecified)
normalized growth: 1
//
compound: CCOP(=S)(OCC)SCCSCC
normalized growth: 0.976
//
compound: CC1=CC(=O)CC(C)(C)C1(O)/C=C/C(C)=C\C(=O)O (stereo unspecified)
normalized growth: 0.975
//
compound: O=C(O)CNCP(=O)(O)O
normalized growth: 1.02
//
compound: Nc1nc2ncc(CNc3ccc(C(=O)N[C@@H](CCC(=O)O)C(=O)O)cc3)nc2c(=O)[nH]1
normalized growth: 0.975
//
compound: CC1(C)C2CC(=O)O[C@@]3(C)C4=CC(=O)O[C@@H](c5ccoc5)[C@]4(C)CCC3[C@@]2(C)C=C[C@H]1O (stereo partly specified)
normalized growth: 0.997
//
compound: c1ccc2[nH]c(-c3cscn3)nc2c1
normalized growth: 0.976
//
compound: CCOP(=S)(OCC)SCSP(=S)(OCC)OCC
normalized growth: 0.978
//
compound: COP(=S)(OC)Oc1ccc(SC)c(C)c1
normalized growth: 0.986
//
compound: C/C=C/c1ccc(OC)cc1
normalized growth: 0.998
//
compound: Oc1cc(O)cc(/C=C/c2ccccc2)c1
normalized growth: 0.987
//
compound: O=c1ccn([C@@H]2O[C@H](COP(=O)(O)OP(=O)(O)OP(=O)(O)O)[C@@H](O)[C@H]2O)c(=O)[nH]1
normalized growth: 0.99
//
compound: CC(C)C1=CC2=CCC3[C@](C)(CCC[C@]3(C)C(=O)O)C2CC1 (stereo partly specified)
normalized growth: 1.01
//
compound: CO[C@@H]1[C@@H](O[C@@H]2O[C@H](C)[C@@H](O[C@H]3C[C@@](C)(O)[C@H](O)[C@H](C)O3)[C@H](N(C)C)[C@H]2O)[C@@H](CC=O)C[C@@H](C)[C@@H](O[C@H]2CC[C@H](N(C)C)[C@@H](C)O2)/C=C/C=C/C[C@H](C)OC(=O)C[C@H]1O
normalized growth: 0.982
//
compound: CC1CC2C(C(O)CC3(C)C2CCC3(O)C(=O)COC(=O)CCC(=O)O)C2(C)C=CC(=O)C=C12 (stereo unspecified)
normalized growth: 0.984
//
compound: CN(Cc1cc(Br)cc(Br)c1N)C1CCCCC1
normalized growth: 0.994
